Taken from paper PMC7339578.

Experiment: Stability tests of analytes in rat plasma QC samples
Assay type: in vitro ADME
Settings: rat plasma, nominal conc. 100 nM
Please provide measured Three freeze-thaw cycles (-80 °C ↔ 23 °C), RE for the entries that follow.
Give bare numbers, in %.

These recorded examples may help you get a feel for the data.
compound: CC(C)=CCC[C@](C)(O[C@@H]1O[C@H](CO)[C@@H](O)[C@H](O)[C@H]1O)[C@H]1CC[C@]2(C)[C@@H]1[C@H](O)C[C@@H]1[C@@]3(C)CC[C@H](O)C(C)(C)[C@@H]3[C@@H](O[C@@H]3O[C@H](CO)[C@@H](O)[C@H](O)[C@H]3O[C@@H]3OC[C@@H](O)[C@H](O)[C@H]3O)C[C@]12C [Compound C8, Notoginsenoside R1]
units of measure: %
experimental result: -10.11

compound: O=C1C=CC[C@@H]2[C@H]3CCC[N+]4([O-])CCC[C@@H](CN12)[C@@H]34 (stereo partly shown) [Compound A2, Oxysophocarpine]
units of measure: %
experimental result: 12.06

compound: CC(C)=CCC[C@](C)(O[C@@H]1O[C@H](CO[C@@H]2O[C@H](CO)[C@@H](O)[C@H](O)[C@H]2O)[C@@H](O)[C@H](O)[C@H]1O)[C@H]1CC[C@]2(C)[C@@H]1[C@H](O)C[C@@H]1[C@@]3(C)CC[C@H](O[C@@H]4O[C@H](CO)[C@@H](O)[C@H](O)[C@H]4O[C@@H]4O[C@H](CO)[C@@H](O)[C@H](O)[C@H]4O)C(C)(C)[C@@H]3CC[C@]12C [Compound D5, Ginsenoside Rb1]
units of measure: %
experimental result: 12.24

Query :: Param item = CC(C)=CCC[C@](C)(O[C@@H]1O[C@H](CO[C@@H]2OC[C@H](O)[C@H](O)[C@H]2O)[C@@H](O)[C@H](O)[C@H]1O)[C@H]1CC[C@]2(C)[C@@H]1[C@H](O)C[C@@H]1[C@@]3(C)CC[C@H](O[C@@H]4O[C@H](CO)[C@@H](O)[C@H](O)[C@H]4O[C@@H]4O[C@H](CO)[C@@H](O)[C@H](O)[C@H]4O)C(C)(C)[C@@H]3CC[C@]12C [Compound D4, Ginsenoside Rb2] ; retrieve measured Three freeze-thaw cycles (-80 °C ↔ 23 °C), RE.
Result :: 10.55
